Note to self: these compounds have pIC50 reported for Renin (Homo sapiens, UniProt P00797) in various publications.
# pIC50 is unitless: minus log10 of the molar concentration; print number only

Check out these entries, answers already filled in.
COMPOUND: COC(=O)CCN1CCCc2ccc(COC3CNCC[C@@H]3c3ccc(OCCCOCc4ccccc4OC)cc3)cc21 (mixture of isomers)
VALUE_OBSERVED: 10.40
//
COMPOUND: CC(C)C[C@H](O)[C@H](O)[C@H](CC1CCCCC1)NC(=O)CN1Cc2c([nH]c3ccccc23)C1=O
VALUE_OBSERVED: 6.70
//
COMPOUND: CC(C)C[C@H](O)[C@H](O)[C@H](CC1CCCCC1)NC(=O)[C@H](Cc1cscn1)NC(=O)[C@@H](CC(=O)CCCc1ccncc1)Cc1ccccc1
VALUE_OBSERVED: 9.68
//
COMPOUND: COc1ccc(C[C@H](NC(=O)N(C)CCc2ccccn2)C(=O)N[C@@H](Cc2cscn2)C(=O)N[C@@H](CC2CCCCC2)[C@@H](O)[C@@H](O)CC(C)C)cc1
VALUE_OBSERVED: 9.11
//
COMPOUND: CC(C)CCSCC[C@H](O)[C@H](CC(C)C)NC(=O)[C@H](C)NC(=O)[C@H](Cc1ccccc1)NC(=O)OC(C)(C)C
VALUE_OBSERVED: 5.26

Okay, next one:
So what's the measured pIC50 for this one? "CC(C)CS(=O)(=O)NC[C@H](O)[C@H](O)[C@H](CC1CCCCC1)NC(=O)[C@H](Cc1c[nH]cn1)NC(=O)[C@H](Cc1ccccc1)NC(=O)OC(C)(C)C"
8.00
